All values here come from ChEMBL document CHEMBL1123383.

# system: Dopamine beta-hydroxylase (Bos taurus, UniProt P15101)
# Sequence (P15101 whole entry): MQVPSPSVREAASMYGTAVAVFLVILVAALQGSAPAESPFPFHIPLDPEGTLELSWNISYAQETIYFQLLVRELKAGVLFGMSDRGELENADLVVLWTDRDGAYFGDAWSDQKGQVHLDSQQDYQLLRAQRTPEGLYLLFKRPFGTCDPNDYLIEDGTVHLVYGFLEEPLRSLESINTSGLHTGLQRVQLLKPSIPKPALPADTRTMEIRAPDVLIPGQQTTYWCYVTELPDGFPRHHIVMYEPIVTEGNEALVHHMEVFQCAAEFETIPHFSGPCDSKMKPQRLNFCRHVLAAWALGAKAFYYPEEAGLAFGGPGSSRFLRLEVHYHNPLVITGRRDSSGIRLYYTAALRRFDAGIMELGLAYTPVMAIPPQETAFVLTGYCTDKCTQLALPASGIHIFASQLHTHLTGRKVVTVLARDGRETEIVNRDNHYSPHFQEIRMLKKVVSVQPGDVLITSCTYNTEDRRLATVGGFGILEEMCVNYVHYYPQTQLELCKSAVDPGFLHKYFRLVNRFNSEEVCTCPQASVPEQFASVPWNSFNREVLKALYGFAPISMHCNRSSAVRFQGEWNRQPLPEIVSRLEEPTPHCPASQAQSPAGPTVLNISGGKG
# test: Inhibition of Dopamine beta hydroxylase.
pIC50: −log10 of the molar value.
readout: pIC50

These solved cases illustrate the format of a correct answer.
Task: Sample "COc1ccc(CCn2ccnc2S)cc1" — what was its pIC50?
Output: 4.17

Task: Another: "Oc1ccc(Cn2cc[nH]c2=S)cc1"
Output: 5.59

Task: Another: CC(CCc1ccccc1)n1ccnc1S (stereo not drawn)
Output: 3.49

1. S=c1[nH]ccn1Cc1ccccc1
2. COc1ccc(CCCCCn2cc[nH]c2=S)cc1
3. COc1ccc(CCCn2cc[nH]c2=S)cc1
Task: Reorder the items by pIC50, least to greatest. # respond with the labels, arranged in the requested order
Output: 3, 2, 1
(3: 3.74, 2: 3.96, 1: 4.49)

1. S=c1[nH]ccn1CCSc1ccccc1
2. Oc1ccc(CCn2cc[nH]c2=S)cc1
Task: Two entries are listed, 1 and 2 . Which one carries the higher pIC50? Please respond with the label that marks your chosen entry.
Output: 2
(2: 4.64, 1: 3.99)
